Known MIC of a selection of compounds
# Test system: Enterococcus faecalis
# method-description: microbe, parasite or virus in culture
# Assay type: functional
# setup-conditions: ATCC 51575, 24 h

{"compound": "CC[C@H]1OC(=O)[C@H](C)[C@@H](O[C@H]2C[C@@](C)(OC)[C@@H](O)[C@H](C)O2)[C@H](C)[C@@H](O[C@@H]2O[C@H](C)C[C@H](N(C)C)[C@H]2O)[C@](C)(O)C[C@@H](C)C(=O)[C@H](C)[C@@H](O)[C@]1(C)O", "MIC": "> 64 µg/mL"}
{"compound": "CN[C@H](CC(C)C)C(=O)N[C@H]1C(=O)N[C@@H](CC(N)=O)C(=O)N[C@H]2C(=O)N[C@H]3C(=O)N[C@H](C(=O)N[C@H](C(=O)O)c4cc(O)cc(O)c4-c4cc3ccc4O)[C@H](O)c3ccc(c(Cl)c3)Oc3cc2cc(c3O[C@@H]2O[C@H](CO)[C@@H](O)[C@H](O)[C@H]2O[C@H]2C[C@](C)(N)[C@H](O)[C@H](C)O2)Oc2ccc(cc2Cl)[C@H]1O.Cl [VANCOMYCIN HYDROCHLORIDE]", "MIC": "> 64 µg/mL"}
{"compound": "CCC[C@@H]1C[C@@H](C(=O)N[C@@H]([C@H]2O[C@H](SC)[C@H](O)[C@@H](O)[C@H]2O)[C@H](C)Cl)N(C)C1.Cl [CLINDAMYCIN HYDROCHLORIDE]", "MIC": "> 64 µg/mL"}
{"compound": "CC(C)(C)c1ccc(-c2cc(CNC(=N)N)ncn2)cc1", "MIC": "> 64 µg/mL"}
